Cited source for all entries: patent US20240343814A1

target: Recombinant human his-tagged IGF 1R extracellular domain protein (human) (UniProt P08069); experiment: SPR, captured IgG, IGF-1R ECD-his analyte, dissociation pH 6
Measured koff by item
Field: numeric (s⁻¹). Do not append units.

binder	koff [s⁻¹]
VRDN-02545 (antibody, V domains shown) VH: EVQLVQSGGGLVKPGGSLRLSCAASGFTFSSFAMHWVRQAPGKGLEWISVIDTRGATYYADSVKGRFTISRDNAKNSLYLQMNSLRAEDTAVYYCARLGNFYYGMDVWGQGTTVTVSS VL: EIVLTQSPGTLSVSPGERATLSCRASQSIGSSLHWYQQKPGQAPRLLIKYASQSLHGIPDRFSGSGSGTDFTLTISRLEPEDFAVYYCHQSSRLPHTFGQGTKVEIK	1e-06

Query: Give its koff value. Item: VRDN-02508 (antibody, V domains shown) VH: EVQLVQSGGGLVKPGGSLRLSCAASGFTFSSFHMHWVRQAPGKGLEWISVIDTRGATYYADSVKGRFTISRDNAKNSLYLQMNSLRAEDTAVYYCARLGNFYYGMDVWGQGTTVTVSS VL: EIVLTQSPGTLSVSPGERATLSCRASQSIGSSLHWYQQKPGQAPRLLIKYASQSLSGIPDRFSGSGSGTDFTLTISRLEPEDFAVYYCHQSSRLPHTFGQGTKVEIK
Result: 0.000207
